Measured pIC50 accompanies every entry in the list below.
TARGET_OF_ASSAY: human A3 receptor (Homo sapiens, UniProt P0DMS8)
Sequence (P0DMS8 whole entry): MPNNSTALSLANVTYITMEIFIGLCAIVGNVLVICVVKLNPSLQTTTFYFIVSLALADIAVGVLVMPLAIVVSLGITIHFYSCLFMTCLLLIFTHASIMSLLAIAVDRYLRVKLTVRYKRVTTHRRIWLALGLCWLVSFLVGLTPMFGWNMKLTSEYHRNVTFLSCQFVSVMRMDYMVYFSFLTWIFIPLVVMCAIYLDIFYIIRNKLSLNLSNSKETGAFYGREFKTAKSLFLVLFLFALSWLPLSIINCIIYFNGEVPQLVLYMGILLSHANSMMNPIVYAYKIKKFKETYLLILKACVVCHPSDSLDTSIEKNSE
PROTOCOL_TEXT: cAMP (HTRF) functional assay, recombinant CHO cells expressing human A3 receptor, forskolin + agonist IB-MECA
pIC50: −log10 of the molar value.

Example results:
COc1ncc(-c2ccccc2)c2sc(NC(=O)N3CC[C@]4(CCOC4)C3)nc12 :: < 6.00
COc1ncc(-c2ccccc2)c2sc(NC(=O)c3cnc(C)s3)nc12 :: > 6.00
COc1ncc(-c2ccccc2)c2sc(NC(=O)N3CC[C@]4(CCCOC4)C3)nc12 :: < 6.00
COc1ncc(-c2ccccc2)c2sc(NC(=O)[C@H]3C[C@@H]3OC)nc12 (racemic) :: > 6.00
COc1ncc(-c2cccc(F)c2)c2sc(NC(=O)N3CCC4(CCOCC4)C3)nc12 :: < 6.00
COc1ncc(-c2ccccc2)c2sc(NC(=O)c3ccc(C(=O)N(C)C)cc3)nc12 :: < 6.00
COc1ncc(N2CCOCC2)c2sc(NC(=O)c3cnn(C)c3)nc12 :: > 6.00
COCc1ccc(C(=O)Nc2nc3c(OC)ncc(-c4cnn(C)c4)c3s2)cc1 :: > 6.00
COc1nc(Br)c(N2CCOCC2)c2sc(NC(=O)c3cnn(C)c3)nc12 :: > 6.00
COc1ncc(-c2cccnc2)c2sc(NC(=O)c3ccc(C(=O)N(C)C)cc3)nc12 :: < 6.00

compound `COc1ncc(-c2ccccc2)c2sc(NC(=O)c3ccc(N4C(=O)CCC4=O)cc3)nc12` , pIC50 observed: < 6.00

Lab note: measured pIC50 of `COc1ncc(N2CCOCC2)c2sc(NC(=O)c3ccc(C(=O)N(C)C)cc3)nc12` was < 6.00

get_value(item= `COCc1ccc(C(=O)Nc2nc3c(OC)ncc(C4CCOCC4)c3s2)cc1` , readout=pIC50) returns < 6.00

Entry `COc1nc(C)c(-c2ccccc2)c2sc(NC(=O)N3CCC4(CCOCC4)C3)nc12` — recorded pIC50 = < 6.00

Lab note: measured pIC50 of `COc1nc(C#N)c(N2CCOCC2)c2sc(NC(=O)c3cnn(C)c3)nc12` was > 6.00
